Where these numbers come from: ChEMBL document CHEMBL3108673

tested on: MDCK; assay: Cytotoxicity against MDCK cells after 48 hrs by methylene blue dye-based spectroscopy relative to control; assay type: cell-based, Canis lupus familiaris; conditions: dog, read-out: CC50
reported.property: CC50

Example molecules with recorded CC50:
>  <smiles.str>
Cc1ccccc1/C=N\NC(=O)c1ccc(O)c(O)c1

>  <CC50>
> 50 µM

$$$$
>  <smiles.str>
COc1ccc(NC(=O)/C(O)=C/C(=O)c2ccc(C)cc2)cc1

>  <CC50>
> 50 µM

$$$$
>  <smiles.str>
O=C(N/N=C\c1cccc(Cl)c1Cl)c1ccc(O)c(O)c1

>  <CC50>
6.8 µM

$$$$
>  <smiles.str>
O=C1CC2(CCCCC2)Oc2c1ccc(O)c2O

>  <CC50>
> 100 µM

$$$$
>  <smiles.str>
C/C(=N/NC(=O)c1ccc(O)c(O)c1)c1ccc(C)cc1

>  <CC50>
> 50 µM

$$$$
>  <smiles.str>
COc1ccccc1N1CCN(/N=C/c2ccc(O)c(O)c2)CC1

>  <CC50>
13 µM

$$$$

Field CC50 (system: MDCK) for entry O=C(Cc1ccccc1)c1ccc(O)c(O)c1O = 18.1 µM

Field CC50 (system: MDCK) for entry CC(=O)N1CCC2(CC1)CC(=O)c1ccc(O)c(O)c1O2 = > 100 µM

Field CC50 (system: MDCK) for entry O=C(Cc1ccccc1Cl)c1ccc(O)c(O)c1O = > 50 µM

Field CC50 (system: MDCK) for entry O=C(N/N=C\c1ccccc1Cl)c1cc(O)c(O)c(O)c1 = > 100 µM

Field CC50 (system: MDCK) for entry O=C(/N=C1/C(=O)Nc2ccc(Br)cc21)/C(O)=C/C(=O)c1ccc(Cl)cc1 = > 50 µM

Field CC50 (system: MDCK) for entry Cc1ccccc1CC(=O)c1ccc(O)c(O)c1O = 21 µM
